- Tested on: HepG2
- protocol_summary: cell viability relative to DMSO; higher = less toxic
- cond: 72 h; 10000 nM
value_type: cell viability (%)

INSERT INTO assay_data (compound, value_type, uom, recorded_measurement) VALUES
  ('Cc1ccc2c(c1)[C@]13CCCC[C@@H]1[C@H](C2)N(C)CC3 [dimemorfan]', 'cell viability', '%', 101),
  ('CC(C)(C)C(=O)Oc1ccc(S(=O)(=O)Nc2ccccc2C(=O)NCC(=O)O)cc1 [sivelestat]', 'cell viability', '%', 98.3),
  ('Cc1ccccc1-c1cc(N2CCN(C)CC2)ncc1N(C)C(=O)C(C)(C)c1cc(C(F)(F)F)cc(C(F)(F)F)c1 [netupitant]', 'cell viability', '%', 95.6);

----------
- Tested on: U2OS
- protocol_summary: cell viability relative to DMSO; higher = less toxic
- cond: 72 h; 10 nM
Documented cell viability across a set of molecules
value_type: cell viability (%)

INSERT INTO measurements (molecule, recorded_measurement) VALUES
  ('OC[C@H]1O[C@H](O[C@]2(CCl)O[C@H](CCl)[C@@H](O)[C@@H]2O)[C@H](O)[C@@H](O)[C@H]1Cl', 100),
  ('COC(=O)C1=C(C)NC(C)=C(C(=O)OC/C=C/c2ccccc2)C1c1cccc([N+](=O)[O-])c1 (centres undefined)', 93),
  ('Cn1cnc(N)c2ncnc1-2', 97.1),
  ('CC#CCOC(=O)c1c(C)nc2sc3c(c2c1N)CCC(O)C3 (centres undefined)', 94.6),
  ('CC(C)NCC(O)COc1cccc2[nH]ccc12 (centres undefined)', 101),
  ('CCc1nc2c(C)nc(C)cc2n1-c1ccc(CCNC(=O)NS(=O)(=O)c2ccc(C)cc2)cc1', 96.3),
  ('O=C(O[C@H]1C[N+]2(CCCOc3ccccc3)CCC1CC2)C(O)(c1cccs1)c1cccs1', 95.9),
  ('Cc1cc(Nc2ccc(NC(=O)c3ccc(Nc4ccnc5ccccc45)cc3)cc2)nc(N)n1', 104),
  ('CC(C)(Oc1ccc(C2CC2(Cl)Cl)cc1)C(=O)O (centres undefined) [ciprofibrate]', 98.3);

----------
# reported relative viability EC50; entries follow
- System: Vero E6
- protocol_summary: relative viability EC50 (midpoint between 100% and the lowest measured viability); higher = less toxic
- cond: 72 h
value_type: relative viability EC50

INSERT INTO assay_data (compound, value_type, recorded_measurement) VALUES
  ('CC(C)(Oc1ccc(C2CC2(Cl)Cl)cc1)C(=O)O (stereo unspecified) [ciprofibrate]', 'relative viability EC50', '> 10 µM'),
  ('CCn1cnc2c(Nc3cccc(Cl)c3)nc(N[C@@H]3CCCC[C@@H]3N)nc21', 'relative viability EC50', '2.94 µM'),
  ('Cn1cc(C(=O)OCC2CCN(CCNS(C)(=O)=O)CC2)c2ccccc21', 'relative viability EC50', '> 10 µM'),
  ('N[C@H]1C[C@@H]1c1ccc(-c2cccc(O)c2)cc1 [OG-L002]', 'relative viability EC50', '> 10 µM'),
  ('COc1c(Nc2ccc(S(C)(=O)=O)nc2C)ncnc1OC1CCN(C(=O)OC(C)C)CC1 [APD597]', 'relative viability EC50', '> 10 µM'),
  ('Nc1c2ccccc2nc2ccccc12 [9-aminoacridine]', 'relative viability EC50', '1.89 µM');

----------
- System: Calu-3
- protocol_summary: cell viability relative to DMSO; higher = less toxic
- cond: 72 h; 1000 nM
cell viability: recorded values
value_type: cell viability (%)

INSERT INTO assay_data (compound, value_type, recorded_measurement) VALUES
  ('OC[C@H]1O[C@H]([S-])[C@H](O)[C@@H](O)[C@@H]1O.[Au+]', 'cell viability', 106),
  ('Cc1cc(Cn2cnc3c2C[C@@H](C(=O)O)N(C(=O)C(c2ccccc2)c2ccccc2)C3)ccc1N(C)C', 'cell viability', 98.1),
  ('CN(C)c1nc(N)c(C(=O)Nc2cccnc2)nc1Cl', 'cell viability', 96.4),
  ('CN1CCC(=C2c3ccccc3C=Cc3ccccc32)CC1', 'cell viability', 106),
  ('N#CCCCSC(=N)N', 'cell viability', 105),
  ('CC[C@@]1(O)C(=O)OCc2c1cc1n(c2=O)Cc2cc3ccccc3nc2-1', 'cell viability', 40.4),
  ('CO[C@@]1(NC(=O)CSC[C@@H](N)C(=O)O)C(=O)N2C(C(=O)O)=C(CSc3nnnn3C)CS[C@@H]21', 'cell viability', 94.5),
  ('COc1cc(C[C@@H](CO)[C@H](CO)Cc2ccc(O)c(OC)c2)ccc1O [secoisolariciresinol-(-)]', 'cell viability', 91.9),
  ('CCc1ccc2c(-c3cccc(Cl)c3)nc(=O)n(CC)c2n1', 'cell viability', 98.3),
  ('CCCCC(=O)O[C@]1(C(=O)CO)[C@@H](C)C[C@H]2[C@@H]3CCC4=CC(=O)C=C[C@]4(C)[C@@]3(F)[C@@H](O)C[C@@]21C [BETAMETHASONE VALERATE]', 'cell viability', 93.7),
  ('CN(C)CCc1ccc(O)cc1', 'cell viability', 101);

----------
- System: Vero E6
- protocol_summary: cell viability relative to DMSO; higher = less toxic
- cond: 72 h; 1 nM
value_type: cell viability (%)

INSERT INTO measurements (compound, subject_of_test, value_type, uom, recorded_measurement) VALUES
  ('NC(=O)NCCC[C@H](N)C(=O)O', 'Vero E6', 'cell viability', '%', 98.6),
  ('Cc1cccc(/C=N/Nc2cc(N3CCOCC3)nc(OCCc3ccccn3)n2)c1', 'Vero E6', 'cell viability', '%', 97.2),
  ('CC(=O)N[C@@H](CS)C(=O)O', 'Vero E6', 'cell viability', '%', 104),
  ('Nc1cc(-c2ccncc2)c[nH]c1=O', 'Vero E6', 'cell viability', '%', 95.5),
  ('Cc1cc(Cn2cnc3c2C[C@@H](C(=O)O)N(C(=O)C(c2ccccc2)c2ccccc2)C3)ccc1N(C)C', 'Vero E6', 'cell viability', '%', 96.5),
  ('CC(C)(O)C(=O)Nc1ccc([N+](=O)[O-])c(C(F)(F)F)c1 [2-hydroxyflutamide]', 'Vero E6', 'cell viability', '%', 100),
  ('COc1cc(C[C@@H](CO)[C@H](CO)Cc2ccc(O)c(OC)c2)ccc1O [secoisolariciresinol-(-)]', 'Vero E6', 'cell viability', '%', 113),
  ('O=C(O)CCCc1ccc(N(CCCl)CCCl)cc1', 'Vero E6', 'cell viability', '%', 102),
  ('CN1CCC(NC(=O)c2cc(-c3c(O)cc(O)cc3Oc3ccc([N+](=O)[O-])cc3)on2)CC1', 'Vero E6', 'cell viability', '%', 109),
  ('Cc1csc(S(=O)(=O)N(CC(C)C)c2cc3c(cc2OCc2ccc(C(=O)O)cc2)CCC3)n1', 'Vero E6', 'cell viability', '%', 107),
  ('CCCC[C@H]1OC(=O)c2ccccc21 [butylphthalide]', 'Vero E6', 'cell viability', '%', 103);

----------
- Tested on: HepG2
- protocol_summary: cell viability relative to DMSO; higher = less toxic
- cond: 72 h; 1000 nM
value_type: cell viability (%)

INSERT INTO assay_data (molecule, recorded_measurement) VALUES
  ('O=c1c2ccccc2oc2ccccc12', 110),
  ('CC1(C)S[C@@H]2[C@H](NC(=O)[C@H](NC(=O)N3CCN(S(C)(=O)=O)C3=O)c3ccccc3)C(=O)N2[C@H]1C(=O)O', 98.6),
  ('Clc1ccc(N2CCN(Cc3c[nH]c4ncccc34)CC2)cc1', 93.6),
  ('CC(=O)O[C@@]12CO[C@@H]1C[C@H](O)[C@@]1(C)C(=O)[C@H](O)C3=C(C)[C@@H](O)C[C@@](O)([C@@H](OC(=O)c4ccccc4)[C@H]21)C3(C)C', 108),
  ('O=c1c(O)c(-c2ccc(O)cc2O)oc2cc(O)cc(O)c12', 97.4),
  ('Cc1ccc(CCCO)c(NCc2ccc3nc(NCCCN4CCOCC4)n(Cc4nc(C)ccc4O)c3c2)c1', 109),
  ('CC(C)=CCC/C(C)=C/CC/C(C)=C/CSc1ccccc1C(N)=O [farnesyl-thiosalicylic-acid-amide]', 108),
  ('N=C1N[C@H]2[C@H](CS[C@H]2CCCCC(=O)O)N1', 97.6),
  ('CCN(CCCOc1ccc2c(Nc3cc(CC(=O)Nc4cccc(F)c4)[nH]n3)ncnc2c1)CCOP(=O)(O)O', 82.9),
  ('Cc1cc(/C=C2\SC(=O)N(c3ccccc3)C2=O)c(C)n1-c1cccnc1', 94.3),
  ('CN1C(=O)C(F)=C[C@]2(C)[C@H]3CC[C@]4(C)[C@@H](C(=O)NCc5nc6cccnc6[nH]5)CC[C@H]4[C@@H]3CC[C@@H]12', 91.4),
  ('CCN(CC)CCOc1ccccc1C(=O)CCc1ccccc1', 94.7),
  ('Cc1nc2c([nH]1)-c1ccccc1N(C(=O)c1ccc(NC(=O)c3ccccc3-c3ccccc3)cc1)CC2', 93.6);
